These measurements were taken from paper PMC2794843.

# testedOn: human muscarinic M1 receptor (hM1) (Homo sapiens)
# Construct: full-length hM1
# Sequence (P11229 whole entry): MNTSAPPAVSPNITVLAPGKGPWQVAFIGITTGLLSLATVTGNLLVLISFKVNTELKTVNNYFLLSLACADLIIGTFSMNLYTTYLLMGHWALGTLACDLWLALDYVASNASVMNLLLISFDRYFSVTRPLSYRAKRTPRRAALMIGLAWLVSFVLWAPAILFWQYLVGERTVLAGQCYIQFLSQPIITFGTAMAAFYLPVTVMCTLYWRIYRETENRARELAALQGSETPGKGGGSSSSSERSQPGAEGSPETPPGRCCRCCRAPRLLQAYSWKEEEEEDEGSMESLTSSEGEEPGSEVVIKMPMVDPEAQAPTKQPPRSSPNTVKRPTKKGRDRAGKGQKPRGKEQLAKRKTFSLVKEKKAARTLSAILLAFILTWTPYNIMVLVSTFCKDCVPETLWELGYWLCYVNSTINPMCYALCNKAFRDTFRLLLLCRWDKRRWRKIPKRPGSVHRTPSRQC
# measurementProtocol: R-SAT, transiently transfected NIH-3T3 cells
valueType: pEC50
// returns pEC50 (minus log10 of molar concentration), number only

Quick one: pEC50 for CCCCC1CCN(CCCN2C(=O)COc3cc(Cl)ccc32)CC1 ?
6.60
